target: T1, human recombinant GIP receptor (human, UniProt P48546 22-466)
T1 construct: whole, on cells; Assayed as washed membranes of CHO-K1 cells expressing the receptor; also called hGIP receptor
T1 sequence (looked up): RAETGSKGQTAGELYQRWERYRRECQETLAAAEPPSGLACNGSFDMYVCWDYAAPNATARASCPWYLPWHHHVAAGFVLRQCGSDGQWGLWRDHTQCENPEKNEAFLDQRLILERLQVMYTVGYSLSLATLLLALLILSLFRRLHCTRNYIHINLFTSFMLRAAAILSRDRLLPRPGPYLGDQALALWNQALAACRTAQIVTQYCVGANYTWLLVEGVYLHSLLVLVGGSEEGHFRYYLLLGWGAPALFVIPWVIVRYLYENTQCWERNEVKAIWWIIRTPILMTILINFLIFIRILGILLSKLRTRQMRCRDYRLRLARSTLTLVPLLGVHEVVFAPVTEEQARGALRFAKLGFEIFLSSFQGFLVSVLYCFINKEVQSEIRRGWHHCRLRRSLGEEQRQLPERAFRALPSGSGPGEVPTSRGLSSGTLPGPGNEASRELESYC
experimentalProtocol: radioligand competition, [125I]GIP on membranes of CHO-K1 cells expressing human GIP receptor
Primed or numbered codes have the meaning given here. [ ]: non-standard residue; d: D form. The star is where a group is joined. Psu(3) = N-propylsuccinimide on Cys S, CCCN1C(=O)CC(*)C1=O; Psu = N-propylsuccinimide (on the Cys sulfur); Ac6c = NC1(C(=O)O)CCCCC1
Decide using Ki alone. Strictly below 700 nM: Y. Equal to or above 700 nM: N.

binder	category
Ac-[Ac6c]SDYSIAMDKIHQQDFVNWLLAQKC(Psu(3))KKNDWKHNITQ-OH (Synthetic analogue of human GIP) [[Ac-A6c^7, Cys(Psu)^31]hGIP(7-42)-OH]	N
Ac-[Ac6c]SDYSIAMDKIHQQDFVNWLLAQKGKC(Psu)NDWKHNITQ-OH (Synthetic analogue of human GIP) [[Ac-A6c^7, Cys(Psu)^33]hGIP(7-42)-OH]	Y
Ac-[Ac6c]SDYSIAMDKIHQQDFVNWLLAQKGKKC(Psu)DWKHNITQ-OH (Synthetic analogue of human GIP) [[Ac-A6c^7, Cys(Psu)^34]hGIP(7-42)-OH]	N
FXSDYSIAMDKIHQQDFVNWLLAQKC (N-terminal acetyl (Ac) on Phe 6; A6c at 7; Cys(Psu) at 31; hGIP numbering; C-terminal amide, Synthetic analogue of human GIP) [[Ac-Phe^6, A6c^7, Cys(Psu)^31]hGIP(6-31)-NH2]	Y
FXSDYSIAXDKIHQQDFVNWLLAQK (A5c (1-amino-1-cyclopentanecarboxylic acid) at 7; Nle (norleucine) at 14; hGIP numbering; C-terminal amide, Synthetic analogue of human GIP) [(A5c^7, Nle^14)hGIP(6-30)-NH2]	N
